- SYSTEM: Casein Kinase 1 (yeast) (Schizosaccharomyces pombe)
- Construct: purchased Upstate 14-112
- Sequence (P40233 1-298 limits assumed): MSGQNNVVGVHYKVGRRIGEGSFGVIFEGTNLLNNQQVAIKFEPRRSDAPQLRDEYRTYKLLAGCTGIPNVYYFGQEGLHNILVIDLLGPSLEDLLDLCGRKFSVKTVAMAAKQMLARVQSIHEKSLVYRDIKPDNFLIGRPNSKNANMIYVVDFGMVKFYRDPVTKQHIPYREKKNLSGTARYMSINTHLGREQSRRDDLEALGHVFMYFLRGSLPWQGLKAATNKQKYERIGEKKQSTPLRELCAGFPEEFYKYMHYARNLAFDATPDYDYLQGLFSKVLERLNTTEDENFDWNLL
- ASSAY REMARKS: CK1-Yeast kinase assay (A37 assay)
- Type: biochemical, S. pombe
- CONDITIONS USED: CSNK1A1 (CK1) Inhibition (IC50), A37, S. pombe CK1 (*)
pIC50: −log10 of the molar value.
PARAMETER: pIC50

I am curious: what pIC50 value has been reported for "CC(C)N1CCN(C(=O)COc2ccc(-c3n[nH]c4c3C(=O)c3c(NC(=O)NN5CCOCC5)cccc3-4)cc2)CC1" ?
> 8.30

###

- SYSTEM: Fes (Homo sapiens)
- Construct: purchased Upstate 14-473
- Sequence (P07332 whole entry): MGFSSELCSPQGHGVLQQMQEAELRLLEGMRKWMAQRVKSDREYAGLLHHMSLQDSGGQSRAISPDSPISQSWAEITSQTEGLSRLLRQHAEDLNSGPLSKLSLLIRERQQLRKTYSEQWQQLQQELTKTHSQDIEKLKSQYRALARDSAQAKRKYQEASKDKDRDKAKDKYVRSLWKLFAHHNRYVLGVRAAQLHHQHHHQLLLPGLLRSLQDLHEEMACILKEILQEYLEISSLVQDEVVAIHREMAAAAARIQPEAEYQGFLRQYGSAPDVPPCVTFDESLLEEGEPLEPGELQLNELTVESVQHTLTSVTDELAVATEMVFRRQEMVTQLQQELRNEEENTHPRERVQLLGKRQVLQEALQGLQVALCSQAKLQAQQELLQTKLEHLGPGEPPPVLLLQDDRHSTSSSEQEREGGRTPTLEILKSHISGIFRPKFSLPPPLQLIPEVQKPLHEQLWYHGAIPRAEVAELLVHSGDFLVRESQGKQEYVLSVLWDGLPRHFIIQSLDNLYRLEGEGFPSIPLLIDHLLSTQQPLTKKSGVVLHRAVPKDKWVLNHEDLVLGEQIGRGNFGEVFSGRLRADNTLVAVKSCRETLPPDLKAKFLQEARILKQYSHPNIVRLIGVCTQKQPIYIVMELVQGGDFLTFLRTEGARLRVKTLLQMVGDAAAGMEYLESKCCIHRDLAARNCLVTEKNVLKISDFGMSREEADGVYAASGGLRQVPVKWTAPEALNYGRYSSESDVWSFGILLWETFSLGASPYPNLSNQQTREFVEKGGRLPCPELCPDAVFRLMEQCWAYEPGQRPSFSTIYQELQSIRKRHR
- ASSAY REMARKS: Fes kinase assay
- Type: biochemical
- CONDITIONS USED: kinase panel; read-out: Fes IC50
pIC50: −log10 of the molar value. Counter-ions that a name gives are not always drawn.
PARAMETER: pIC50

Looking for the measured pIC50 of COCCN1CCN(Cc2ccc(-c3n[nH]c4c3C(=O)c3c(NC(=O)NN5CCOCC5)cccc3-4)cc2)CC1 [Compound B16, dihydrochloride] , can you help?
> 7.00

###

- SYSTEM: panel of Tyr kinases
- ASSAY REMARKS: Kinase panel, Tyr kinases (average)
- CONDITIONS USED: average over panel; read-out: average IC50 among Tyr kinases
Counter-ions that a name gives are not always drawn.
PARAMETER: IC50

Item under review: COCCN1CCN(Cc2ccc(-c3n[nH]c4c3C(=O)c3c(NC(=O)NN5CCOCC5)cccc3-4)cc2)CC1 [Compound B16, dihydrochloride] . Reported IC50?
~55 nM

###

- SYSTEM: CDKs
- Construct: IC50 range over CDK1-7; other: 6 CDKs / CDK1-7; Cdk2/his-cyclin Eshort was expressed in Sf9 cells; Cdk2/cyclin A, cdk4/cyclin D1, and cdk6/cyclin D2 were expressed in Sf9 cells
- ASSAY REMARKS: Kinase panel, CDKs (average/range)
- Assay type: biochemical
- CONDITIONS USED: read-out: IC50 range over CDK1-7
PARAMETER: IC50

Which value of IC50 has been reported for CC(C)N1CCN(C(=O)COc2ccc(-c3n[nH]c4c3C(=O)c3c(NC(=O)NN5CCOCC5)cccc3-4)cc2)CC1 [Compound A37] in the records?
3 to 155 nM

###

Below, each of the compounds is paired with its reported pIC50 value.
- System: NCI-Adr resistant
- ASSAY REMARKS: SRB cytotoxicity, P-glycoprotein expressing cells with and without verapamil
- Type: cell-based
- CONDITIONS USED: Homo sapiens, NCI/ADR-RES; 72 h, SRB, verapamil 12.5 μg/ml
Counter-ions that a name gives are not always drawn.
pIC50 field: float, defined as -log10 of concentration (mol/L).

1) CC(C)N1CCN(C(=O)COc2ccc(-c3n[nH]c4c3C(=O)c3c(NC(=O)NN5CCOCC5)cccc3-4)cc2)CC1
6.87

Quick one: pIC50 of CC(=O)O[C@@]12CO[C@@H]1C[C@H](O)[C@@]1(C)C(=O)[C@H](O)C3=C(C)[C@@H](OC(=O)[C@H](O)[C@@H](NC(=O)OC(C)(C)C)c4ccccc4)C[C@@](O)([C@@H](OC(=O)c4ccccc4)[C@H]21)C3(C)C [Taxotere, reference compound] ?
7.44

Item CC(=O)O[C@H]1C(=O)[C@@]2(C)[C@H]([C@H](OC(=O)c3ccccc3)[C@]3(O)C[C@H](OC(=O)[C@H](O)[C@@H](NC(=O)c4ccccc4)c4ccccc4)C(C)=C1C3(C)C)[C@]1(OC(C)=O)CO[C@@H]1C[C@@H]2O [Paclitaxel, reference compound] has what recorded pIC50?
7.41

Form field: reported pIC50 of COCCN1CCN(Cc2ccc(-c3n[nH]c4c3C(=O)c3c(NC(=O)NN5CCOCC5)cccc3-4)cc2)CC1 [Compound B16, dihydrochloride]
7.10
